Target: Acetylcholinesterase (Electrophorus electricus, UniProt O42275)
Sequence (O42275 whole entry): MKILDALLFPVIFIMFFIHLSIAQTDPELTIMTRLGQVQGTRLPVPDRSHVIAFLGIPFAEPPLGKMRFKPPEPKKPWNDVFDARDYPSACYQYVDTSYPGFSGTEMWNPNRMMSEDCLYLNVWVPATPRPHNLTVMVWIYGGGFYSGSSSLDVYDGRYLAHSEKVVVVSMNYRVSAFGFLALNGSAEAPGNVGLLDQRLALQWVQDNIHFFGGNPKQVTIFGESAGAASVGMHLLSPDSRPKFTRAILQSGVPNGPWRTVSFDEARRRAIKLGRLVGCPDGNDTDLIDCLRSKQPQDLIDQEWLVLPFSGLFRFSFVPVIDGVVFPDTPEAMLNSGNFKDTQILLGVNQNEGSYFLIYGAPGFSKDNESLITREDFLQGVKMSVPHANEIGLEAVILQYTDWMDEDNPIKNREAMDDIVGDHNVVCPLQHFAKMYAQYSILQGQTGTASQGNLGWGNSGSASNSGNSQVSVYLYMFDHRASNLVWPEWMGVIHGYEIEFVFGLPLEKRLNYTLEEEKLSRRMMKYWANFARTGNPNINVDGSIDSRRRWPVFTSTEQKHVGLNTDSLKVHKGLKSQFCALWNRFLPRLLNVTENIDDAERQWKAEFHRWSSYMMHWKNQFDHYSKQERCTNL
Please use Met for IC50 under 0.4 µM and Not met for everything else, ties included.

Lookup: Please indicate whether the reported IC50 of "CC1CCN(CCCCCOc2ccc3oc4ccccc4c(=O)c3c2)CC1" is strictly below 0.4 µM.
Found: Not met

Lookup: Please indicate whether the reported IC50 of CC1CCCN(CCCCCCOc2ccc3oc4ccc(Cl)cc4c(=O)c3c2)C1 (stereo unspecified) is strictly below 0.4 µM.
Found: Met

Lookup: Please indicate whether the reported IC50 of CC1CCCN(CCCCCOc2ccc3oc4cc(Cl)ccc4c(=O)c3c2)C1 (stereo unspecified) is strictly below 0.4 µM.
Found: Met

Lookup: Please indicate whether the reported IC50 of CC1CCCN(CCCCCOc2ccc3oc4ccc(Cl)cc4c(=O)c3c2)C1 (stereo unspecified) is strictly below 0.4 µM.
Found: Not met

Lookup: Please indicate whether the reported IC50 of "O=c1c2ccccc2oc2ccc(OCCCCCCN3CCCCCC3)cc12" is strictly below 0.4 µM.
Found: Met

Lookup: Please indicate whether the reported IC50 of "O=c1c2ccc(Cl)cc2oc2ccc(OCCCCCN3CCCCCC3)cc12" is strictly below 0.4 µM.
Found: Met

Lookup: Please indicate whether the reported IC50 of "CC1CCN(CCCCCOc2ccc3oc4ccc(Cl)cc4c(=O)c3c2)CC1" is strictly below 0.4 µM.
Found: Met

Lookup: Please indicate whether the reported IC50 of "CC1CCN(CCCCCCOc2ccc3oc4cc(Cl)ccc4c(=O)c3c2)CC1" is strictly below 0.4 µM.
Found: Not met

Lookup: Please indicate whether the reported IC50 of CC1CCCN(CCCCCCOc2ccc3oc4cc(Cl)ccc4c(=O)c3c2)C1 (stereo unspecified) is strictly below 0.4 µM.
Found: Met

Lookup: Please indicate whether the reported IC50 of "CC1CCN(CCCCCCOc2ccc3oc4ccc(Cl)cc4c(=O)c3c2)CC1" is strictly below 0.4 µM.
Found: Not met

* * *

Target: Cholinesterase (Equus caballus, UniProt P81908)
Sequence (P81908 whole entry): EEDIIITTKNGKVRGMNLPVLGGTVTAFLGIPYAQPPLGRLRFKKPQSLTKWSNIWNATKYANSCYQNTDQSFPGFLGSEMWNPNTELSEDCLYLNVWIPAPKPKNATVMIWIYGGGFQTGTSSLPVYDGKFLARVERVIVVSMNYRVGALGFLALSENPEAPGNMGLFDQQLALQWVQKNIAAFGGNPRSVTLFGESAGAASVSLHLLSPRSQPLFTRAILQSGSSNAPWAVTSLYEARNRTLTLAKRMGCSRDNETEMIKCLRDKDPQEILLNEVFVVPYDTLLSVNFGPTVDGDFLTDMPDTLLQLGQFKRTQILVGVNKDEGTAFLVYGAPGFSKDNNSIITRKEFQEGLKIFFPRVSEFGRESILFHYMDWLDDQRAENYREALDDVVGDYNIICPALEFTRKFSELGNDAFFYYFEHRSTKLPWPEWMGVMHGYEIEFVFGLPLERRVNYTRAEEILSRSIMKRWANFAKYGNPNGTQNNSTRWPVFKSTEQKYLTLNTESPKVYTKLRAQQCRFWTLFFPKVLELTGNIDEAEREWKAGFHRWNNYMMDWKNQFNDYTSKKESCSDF
Give pIC50 for every item shown.
In plain terms, pIC50 is the concentration in mol/L turned into minus its base-10 logarithm.

Lookup: Please state recorded pIC50 (tested on Cholinesterase (Equus caballus, UniProt P81908)) of "O=c1c2ccccc2oc2ccc(OCCCCCN3CCCCCC3)cc12"
Found: 6.06

Lookup: Please state recorded pIC50 (tested on Cholinesterase (Equus caballus, UniProt P81908)) of "O=c1c2ccc(Cl)cc2oc2ccc(OCCCCCCN3CCCCCC3)cc12"
Found: 5.91

Lookup: Please state recorded pIC50 (tested on Cholinesterase (Equus caballus, UniProt P81908)) of "CC1CCN(CCCCCOc2ccc3oc4cc(Cl)ccc4c(=O)c3c2)CC1"
Found: 5.79

Lookup: Please state recorded pIC50 (tested on Cholinesterase (Equus caballus, UniProt P81908)) of "O=c1c2ccc(Cl)cc2oc2ccc(OCCCCCN3CCCCCC3)cc12"
Found: 5.89

Lookup: Please state recorded pIC50 (tested on Cholinesterase (Equus caballus, UniProt P81908)) of "CC1CCN(CCCCCCOc2ccc3oc4cc(Cl)ccc4c(=O)c3c2)CC1"
Found: 5.82

Lookup: Please state recorded pIC50 (tested on Cholinesterase (Equus caballus, UniProt P81908)) of "O=c1c2ccccc2oc2ccc(OCCCCCCN3CCCCC3)cc12"
Found: 5.70

Lookup: Please state recorded pIC50 (tested on Cholinesterase (Equus caballus, UniProt P81908)) of "O=c1c2cc(Cl)ccc2oc2ccc(OCCCCCCN3CCCCC3)cc12"
Found: 6.02

Lookup: Please state recorded pIC50 (tested on Cholinesterase (Equus caballus, UniProt P81908)) of CC1CCCN(CCCCCOc2ccc3oc4cc(Cl)ccc4c(=O)c3c2)C1 (configuration not stated)
Found: 5.55

Lookup: Please state recorded pIC50 (tested on Cholinesterase (Equus caballus, UniProt P81908)) of "O=c1c2cc(Cl)ccc2oc2ccc(OCCCCCCN3CCCCCC3)cc12"
Found: 6.26

Lookup: Please state recorded pIC50 (tested on Cholinesterase (Equus caballus, UniProt P81908)) of "O=c1c2cc(Cl)ccc2oc2ccc(OCCCCCN3CCCCC3)cc12"
Found: 6.01

Lookup: Please state recorded pIC50 (tested on Cholinesterase (Equus caballus, UniProt P81908)) of "O=c1c2cc(Cl)ccc2oc2ccc(OCCCCCN3CCCCCC3)cc12"
Found: 6.40

Lookup: Please state recorded pIC50 (tested on Cholinesterase (Equus caballus, UniProt P81908)) of "O=c1c2ccc(Cl)cc2oc2ccc(OCCCCCCN3CCCCC3)cc12"
Found: 5.70
